Tested on: Clostridium difficile ATCCBAA-1382
Assay: in vitro anti-Clostridium difficile MIC, standard broth dilution method
Assay type: cell-based
Conditions: Clostridium difficile ATCCBAA-1382
OUTCOME MEASURE: MIC (µg/mL)

CCCCCc1ccc(/C(C)=C/C(=O)N[C@@H](Cc2c[nH]c3ccccc23)C(=O)N[C@H](CC(N)=O)C(=O)N[C@@H](CC(=O)O)C(=O)N[C@@H]2C(=O)NCC(=O)N[C@@H](CCCN)C(=O)N[C@@H](CC(=O)O)C(=O)N[C@H](C)C(=O)N[C@@H](CC(=O)O)C(=O)NCC(=O)N[C@H](CO)C(=O)N[C@@H](C(C)CC(=O)O)C(=O)N[C@@H](CC(=O)c3ccccc3NC)C(=O)O[C@@H]2C)cc1 (stereo partly shown) [Compound 7] :: 0.25
CCCCCCCCCC(=O)N[C@@H](Cc1c[nH]c2ccccc12)C(=O)N[C@H](CC(N)=O)C(=O)N[C@@H](CC(=O)O)C(=O)N[C@@H]1C(=O)NCC(=O)N[C@@H](CCCN)C(=O)N[C@@H](CC(=O)O)C(=O)N[C@H](C)C(=O)N[C@@H](CC(=O)O)C(=O)NCC(=O)N[C@H](CO)C(=O)N[C@@H]([C@H](C)CC(=O)O)C(=O)N[C@@H](CC(=O)c2ccccc2N)C(=O)O[C@@H]1C [daptomycin, reference compound] :: 1
CCCCCc1ccc(/C(C)=C/C(=O)N[C@@H](Cc2c[nH]c3ccccc23)C(=O)N[C@H](CC(N)=O)C(=O)N[C@@H](CC(=O)O)C(=O)N[C@@H]2C(=O)NCC(=O)N[C@@H](CCCN)C(=O)N[C@@H](CC(=O)O)C(=O)N[C@H](C)C(=O)N[C@@H](CC(=O)O)C(=O)NCC(=O)N[C@H](CO)C(=O)N[C@@H]([C@H](C)CC(=O)O)C(=O)N[C@@H](CC(=O)c3ccccc3N)C(=O)O[C@@H]2C)cc1 [surotomycin, reference compound] :: 0.5
CCCCCCCCCC(=O)N[C@@H](Cc1c[nH]c2ccccc12)C(=O)N[C@H](CC(N)=O)C(=O)N[C@@H](CC(=O)O)C(=O)N[C@@H]1C(=O)NCC(=O)N[C@@H](CCCN)C(=O)N[C@@H](CC(=O)O)C(=O)N[C@H](C)C(=O)N[C@@H](CC(=O)O)C(=O)NCC(=O)N[C@H](CO)C(=O)N[C@@H](C(C)CC(=O)O)C(=O)N[C@@H](CC(=O)c2ccccc2NC)C(=O)O[C@@H]1C (stereo partly shown) [Compound 1] :: 0.5
